Values compiled from paper PMC10566475.

- measured-on: interaction between the human Keap1 Kelch domain and an Nrf2-ETGE peptide (Homo sapiens)
- Construct: 1nM purified human Keap1 Kelch domain (A321-T609) fused with N-terminal 6x His-tag; made in house
- Sequence (Q14145 321-609): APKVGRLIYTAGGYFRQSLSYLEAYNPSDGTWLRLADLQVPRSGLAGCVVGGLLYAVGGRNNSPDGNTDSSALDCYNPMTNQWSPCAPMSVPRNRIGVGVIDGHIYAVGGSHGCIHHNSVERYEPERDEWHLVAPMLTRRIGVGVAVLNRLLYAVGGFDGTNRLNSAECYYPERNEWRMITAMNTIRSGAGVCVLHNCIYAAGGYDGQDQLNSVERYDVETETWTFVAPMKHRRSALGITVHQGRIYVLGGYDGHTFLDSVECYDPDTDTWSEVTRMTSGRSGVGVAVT
- measurement-description: Keap1-Nrf2 TR-FRET (HTRF) assay
- Format: binding
- test-parameters: Table 1; geometric mean ± sd of at least 3 independent repeats unless stated; read-out: TR-FRET IC50
*1 amine or outer side, *2 acyl side, *3 side chain or, on linkers, in order; H or OH if unused. Where a SMILES comes first, the peptide text is derived from it. Bridges are numbered along the chain shown (N, C = ends). X1 = CN(CC(=O)O)c1nc(CC[*:1])cc(CC[*:2])n1; CH2 = C([*:1])[*:2]
Answer each item with its documented IC50.
Answers are plain numbers, in nM.

// worked examples, IC50 included
{"columns": ["compound", "value-type", "numeric-result"],
 "data": [
  ["CC(=O)N[C@H]1CSCSC[C@@H](C(=O)N[C@@H](CC(C)C)C(N)=O)NC(=O)[C@H](CCC(=O)O)NC(=O)CNC(=O)[C@H]([C@@H](C)O)NC(=O)[C@H](CCC(=O)O)NC(=O)[C@@H]2CCCN2C(=O)[C@H](CC(=O)O)NC(=O)[C@H](CC(C)C)NC(=O)[C@H](CCC(N)=O)NC1=O [Peptide P1-A] (Ac-CQLDPETGECL-NH2; linker 1-10 via CH2)", "IC50", 2.9],
  ["CC(=O)N[C@@H](CC(C)C)C(=O)N[C@@H](CCC(N)=O)C(=O)N[C@H]1CSCCc2cc(nc(N(C)CC(=O)O)n2)CCSC[C@@H](C(=O)N[C@@H](CC(C)C)C(N)=O)NC(=O)[C@H](CCC(=O)O)NC(=O)CNC(=O)[C@H]([C@@H](C)O)NC(=O)[C@H](CCC(=O)O)NC(=O)[C@@H]2CCCN2C(=O)[C@H](CC(=O)O)NC1=O [Peptide P2-D] (Ac-LQCDPETGECL-NH2; linker 3-10 via X1)", "IC50", 4.8],
  ["CC(=O)N[C@H]1CSCCc2cc(nc(N(C)CC(=O)O)n2)CCSC[C@@H](C(=O)N[C@@H](CC(C)C)C(N)=O)NC(=O)[C@H](CCC(=O)O)NC(=O)CNC(=O)[C@H]([C@@H](C)O)NC(=O)[C@H](CCC(=O)O)NC(=O)[C@@H]2CCCN2C(=O)[C@H](CC(=O)O)NC(=O)[C@H](CC(C)C)NC(=O)[C@H](CCC(N)=O)NC1=O [Peptide P1-D] (Ac-CQLDPETGECL-NH2; linker 1-10 via X1)", "IC50", 2.9],
  ["CC(=O)N[C@H]1CSCCc2cc(nc(N(C)CC(=O)O)n2)CCSC[C@@H](C(=O)N[C@@H](CC(C)C)C(N)=O)NC(=O)[C@H](CCC(=O)O)NC(=O)CNC(=O)[C@H]([C@@H](C)O)NC(=O)[C@H](CCC(=O)O)NC(=O)[C@@H]2CCCN2C(=O)[C@H](CC(=O)O)NC(=O)[C@H](CC(C)C)NC(=O)[C@H](CCC(N)=O)NC(=O)[C@H](CC(C)C)NC1=O [Peptide P3-D] (Ac-CLQLDPETGECL-NH2; linker 1-11 via X1)", "IC50", 2.4]
]}

# next compound below
IN: Name the reported IC50 value associated with the compound CC(=O)N[C@H]1Cn2cc(nn2)-c2cc(C(=O)O)cc(c2)-c2cn(nn2)C[C@@H](C(=O)N[C@@H](CC(C)C)C(N)=O)NC(=O)[C@H](CCC(=O)O)NC(=O)CNC(=O)[C@H]([C@@H](C)O)NC(=O)[C@H](CCC(=O)O)NC(=O)[C@@H]2CCCN2C(=O)[C@H](CC(=O)O)NC(=O)[C@H](CC(C)C)NC(=O)[C@H](CCC(N)=O)NC(=O)[C@H](CC(C)C)NC1=O [Peptide P3Aza-E]
OUT: 4
